Give shrunken log2 fold change for every item shown.
test system: Escherichia coli TOP10; assay: shrunken log2 fold change of peptide-encoding DNA abundance (4.5 h post-induction vs induction); higher = less antimicrobial activity (less host growth inhibition); conditions: time post-induction: 4.5 h; library: site-saturation at positions 5, 18, 19, 20

Here is how some sequences turned out for shrunken log2 fold change.
RRIRHRPPRLPRPRPRPQNNPRP; -0.731
RRIRARPPRLPRPRPRPFVLPRP; -0.181

Read the entry RRIRNRPPRLPRPRPRPRLNPRP and write its reported shrunken log2 fold change.
-0.212

* * *

test system: Escherichia coli TOP10; assay: shrunken log2 fold change of peptide-encoding DNA abundance (4.5 h post-induction vs induction); higher = less antimicrobial activity (less host growth inhibition); conditions: time post-induction: 4.5 h; library: site-saturation at positions 5, 18, 19, 20;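 note: peptides expressed intracellularly from a pBAD plasmid library in pooled LB shake-flask culture, induced with 0.3% L-arabinose, DNA abundance read by NGS, three biological replicates, DESeq2 with apeglm shrinkage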
readout: shrunken log2 fold change

Some entries whose results are on file:
RRIRKRPPRLPRPRPRPKWDPRP; 0.361
RRIRQRPPRLPRPRPRPFFVPRP; -0.0254
RRIRLRPPRLPRPRPRPVPSPRP; 0.157
RRIRWRPPRLPRPRPRPYTQPRP; 0.167
RRIRNRPPRLPRPRPRPPHPPRP; 0.292

Fill in shrunken log2 fold change for each of the 5 sequences listed.
1. RRIRFRPPRLPRPRPRPMAKPRP
2. RRIRARPPRLPRPRPRPTSQPRP
3. RRIRCRPPRLPRPRPRPGVSPRP
4. RRIRNRPPRLPRPRPRPVYQPRP
5. RRIRDRPPRLPRPRPRPACAPRP

1: -0.0311; 2: 0.211; 3: 0.0886; 4: -0.00185; 5: 0.705

Each sequence below has a reported value. Please supply its shrunken log2 fold change.
1. RRIRERPPRLPRPRPRPVAYPRP
2. RRIRRRPPRLPRPRPRPDYGPRP
3. RRIRSRPPRLPRPRPRPPYKPRP
4. RRIRIRPPRLPRPRPRPMAPPRP

-0.178
-0.28
-0.465
-0.0415

Need shrunken log2 fold change for each of these sequences.
1. RRIRARPPRLPRPRPRPFLRPRP
2. RRIRTRPPRLPRPRPRPQQPPRP
3. RRIRCRPPRLPRPRPRPFQCPRP
4. RRIRERPPRLPRPRPRPHEHPRP

1. 0.0973
2. 0.153
3. -0.296
4. -0.205

List reported shrunken log2 fold change for each of these sequences:
1. RRIRTRPPRLPRPRPRPKEVPRP
2. RRIRPRPPRLPRPRPRPHCQPRP
3. RRIRERPPRLPRPRPRPLYCPRP

1. -0.0117
2. -0.0117
3. -0.444

// data source = the supplement of paper PMC9112550
